Below: a set of entries, each annotated with reported melting point.
reported.endpoint: melting point

compound: CSC[C@H](NCc1ccccc1N)C(=O)O
value.reported: 193 °C

compound: Cc1cccc(-c2nn3c(c2-c2ccc(F)cc2)CC[C@H]3CO)n1
value.reported: 142 to 144 °C

compound: CCOC(=O)N1C(NC(C)C)=NS(=O)(=O)c2c1sc(C)c2C#N
value.reported: 116 to 119 °C

compound: CCOC(=O)/C=C/c1ccc(OCCOC2CC2)cc1Oc1ncc(C(F)(F)F)cc1Cl
value.reported: 75.4 to 75.9 °C

compound: CCOC(=O)Cc1nc(-c2ccc(Cl)cc2)oc1Sc1ccccc1
value.reported: 109 to 110 °C

compound: CC1(C)Sc2cc(Cl)ccc2C2=NN(C(=O)Nc3ccc(C(F)(F)F)cc3)CC21 (configuration not stated)
value.reported: 200 to 202 °C

compound: CC(=O)SC(CC(=O)c1ccc(Oc2ccc(Br)cc2)cc1)C(=O)O (configuration not stated)
value.reported: 117 to 118 °C

compound: Cc1c(Cl)ccc(S(=O)(=O)Cl)c1C#N
value.reported: 69 to 72 °C

compound: O=C(CCCOc1cccc(CN2CCCCC2)c1)Nc1nc(CCc2ccccc2)n[nH]1
value.reported: 192 to 193 °C

compound: CCC(C)(CC)c1ccc(NC(=O)c2c(OC)cccc2OC)nn1
value.reported: 145 to 147 °C

compound: CC(C)(C)S(=O)(=O)N1C[C@H](O)C[C@@H]1c1cc(F)cc(C#N)c1
value.reported: 93 to 96 °C

compound: CCSc1nc(Cl)nc2cccnc12
value.reported: 101 to 103 °C

compound: CCOCCOc1ccc(C(O)CNC(C)CCc2ccccc2)cc1C(=O)OC (configuration not stated)
value.reported: 100 to 101 °C

compound: O=C(O)C1=CN(C2CC2)C(c2ccc3c(c2)OCO3)CC1=O (configuration not stated)
value.reported: 122 to 124 °C

compound: NC(=O)N(O)CCNC(=O)c1cc2ccccc2o1
value.reported: 181 to 182 °C

compound: COC(=O)C1=C(C)NC(C)=C(c2nc(N(C)Cc3ccccc3)no2)C1c1cccc([N+](=O)[O-])c1 (configuration not stated)
value.reported: 182 to 184 °C

compound: CCc1nc(-c2ccc(OCCCc3ccccc3)cc2)no1
value.reported: 41 to 42 °C

Hello, the source for this data is a melting point compilation (Tetko et al.; mined from patent text by program, amines drawn as free bases though some values may be those of a salt), in case you need it.
